Values from patent US20110091971A1

Tested on: H1 or H9 human embryonic stem cells
Assay: Activin A bioassay: differentiation of human embryonic stem cells to definitive endoderm, cell number and SOX17 intensity by high content analysis (96-well, four days);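 also: total fluorescence of the cell multiplied by cell area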
Type: cell-based
Settings: supernatant concentration 1x, assay dilution 1:20
OBSERVATION TYPE: Sox 17 Intensity average

MOLECULE: ACTN32: activin A variant peptide, SEQ ID 33 (protein) GLECDGKVNLCCKKQDFVSFKDIGWNDWIIAPSGYHANRCGGKCPSHIAGTSGSSLSFHSTVINHYRMRGHSPFSNMGSCCIPTKLRPMSMLYYDDGQNIIKKDIQNMIVEECGCS
OBSERVATION TYPE: Sox 17 Intensity average
RESULT: 9.11E+04
//
MOLECULE: ACTN20: activin A variant peptide, SEQ ID 21 (protein) GLECDGKVNLCCKKQNFVSFKDIGWNDWIIAPSGYHANKCGGLCPSHIAGTSGSSLSFHSTVINHYRMRGHSPFAQMGACCIPTKLRPMSMLYYDDGQNIIKKDIQNMIVEECGCS
OBSERVATION TYPE: Sox 17 Intensity average
RESULT: 1.26E+04
//
MOLECULE: ACTN21: activin A variant peptide, SEQ ID 22 (protein) GLECDGKVNYCCKKQWFVSFKDIGWNDWIIAPSGYHANKCSGKCPSHIAGTSGSSLSFHSTVINHYRMRGHSPFANMGSCCIPTKLRPMSMLYYDDGQNIIKKDIQNMIVEECGCS
OBSERVATION TYPE: Sox 17 Intensity average
RESULT: 6.33E+03
//
MOLECULE: ACTN47: activin A variant peptide, SEQ ID 48 (protein) GLECDGKVNYCCKKQNFVSFKDIGWNDWIIAPSGYHANECSGKCPSHIAGTSGSSLSFHSTVINHYRMRGHSPFSDMGSCCIPTKLRPMSMLYYDDGQNIIKKDIQNMIVEECGCS
OBSERVATION TYPE: Sox 17 Intensity average
RESULT: 7.48E+05
//
MOLECULE: ACTN6: activin A variant peptide, SEQ ID 7 (protein, Sytnthetic Construct) GLECDGKVNLCCKKQWFVSFKDIGWNDWIIAPSGYHANRCSGKCPSHIAGTSGSSLSFHSTVINHYRMRGHSPFADMGACCIPTKLRPMSMLYYDDGQNIIKKDIQNMIVEECGCS
OBSERVATION TYPE: Sox 17 Intensity average
RESULT: 1.234E+07
//
MOLECULE: ACTN53: activin A variant peptide, SEQ ID 54 (protein) GLECDGKVNICCKKQEFGQAKDIGWNDWIIAPSGYHGGGCSGECPSHIAGTSGSSLSFHSTVINHYRMRGHSPWANLKSCCSPTKLRPMSMLYYDDGQNIIKKDIQGMKVEECGCT
OBSERVATION TYPE: Sox 17 Intensity average
RESULT: 1.14E+06

Proceed to the following item.
(Q) // query Sox 17 Intensity average value for entry ACTN35: activin A variant peptide, SEQ ID 36 (protein) GLECDGKVNLCCKKQDFVSFKDIGWNDWIIAPSGYHANRCSGKCPSHIAGTSGSSLSFHSTVINHYRMRGHSPFSDMGSCCVPTKLRPMSMLYYDDGQNIIKKDIQNMIVEECGCS
(A) 7.94E+04
